tested on: Stellaria media; assay: Post-emergence herbicidal action against STEME; type: in vivo; conditions: 80 g/ha, visual assessment about 3 weeks after treatment
Please respond with reported Post-emergence action against STEME in % for every item in the list.
Write the numeric value and append its unit.

## Task State the recorded Post-emergence action against STEME in % for this entry: Cc1c(C(=O)Nc2nnnn2C)ccc(S(C)(=O)=O)c1C(=O)N(C)C [Example 1-395]
## Result 100%

## Task State the recorded Post-emergence action against STEME in % for this entry: CCn1nnnc1NC(=O)c1ccc(C(F)(F)F)c(C(=O)N(C)CC2CC2)c1Cl [Example 2-126]
## Result 100%

## Task State the recorded Post-emergence action against STEME in % for this entry: CN(CC1CC1)C(=O)c1c(C(F)(F)F)ccc(C(=O)Nc2nnnn2C)c1Cl [Example 1-126]
## Result 100%

## Task State the recorded Post-emergence action against STEME in % for this entry: CCn1nnnc1NC(=O)c1ccc(C(F)(F)F)c(C(=O)n2cccn2)c1Cl [Example 2-153]
## Result 100%

## Task State the recorded Post-emergence action against STEME in % for this entry: CCn1nnnc1NC(=O)c1ccc(C(F)(F)F)c(C(=O)N(C)C)c1Cl [Example 2-123]
## Result 100%

## Task State the recorded Post-emergence action against STEME in % for this entry: Cc1ccccc1N(C)C(=O)c1c(Cl)ccc(C(=O)Nc2nnnn2C)c1Cl [Example 1-399]
## Result 100%

## Task State the recorded Post-emergence action against STEME in % for this entry: CCN(C)C(=O)c1c(C(F)(F)F)ccc(C(=O)Nc2nnnn2CC)c1Cl [Example 2-124]
## Result 100%

## Task State the recorded Post-emergence action against STEME in % for this entry: CCCn1nnnc1NC(=O)c1ccc(C(F)(F)F)c(C(=O)N2CCCC2)c1Cl [Example 3-152]
## Result 90%

---

Please respond with reported Post-emergence action against AMARE in % for every item in the list.
test system: Amaranthus retroflexus; assay: Post-emergence herbicidal action against AMARE; format: in vivo; settings: 5 g/ha, visual assessment about 3 weeks after treatment
Write the numeric value and append its unit.

## Task State the recorded Post-emergence action against AMARE in % for this entry: CCN(C(=O)c1c(C(F)F)ccc(C(=O)Nc2nnnn2C)c1Cl)C1CC1 [Example 1-167]
## Result 100%

## Task State the recorded Post-emergence action against AMARE in % for this entry: CCN(CC)C(=O)c1c(C(F)(F)F)ccc(C(=O)Nc2nnnn2C)c1Cl [Example 1-135]
## Result 80%

## Task State the recorded Post-emergence action against AMARE in % for this entry: CN(C(=O)c1c(C(F)(F)F)ccc(C(=O)Nc2nnnn2C)c1Cl)C1CC1 [Example 1-125]
## Result 80%

## Task State the recorded Post-emergence action against AMARE in % for this entry: CCN(CC)C(=O)c1c(C(F)(F)F)ccc(C(=O)Nc2nnnn2C)c1C [Example 1-31]
## Result 90%

## Task State the recorded Post-emergence action against AMARE in % for this entry: CCn1nnnc1NC(=O)c1ccc(C(F)(F)F)c(C(=O)N(C)C)c1Cl [Example 2-123]
## Result 100%

## Task State the recorded Post-emergence action against AMARE in % for this entry: CN(CC(F)F)C(=O)c1c(C(F)F)ccc(C(=O)Nc2nnnn2C)c1Cl [Example 1-159]
## Result 100%

## Task State the recorded Post-emergence action against AMARE in % for this entry: CCN(C(=O)c1c(C(F)(F)F)ccc(C(=O)Nc2nnnn2C)c1Cl)C1CC1 [Example 1-136]
## Result 100%

## Task State the recorded Post-emergence action against AMARE in % for this entry: CCN(C)C(=O)c1c(C(F)(F)F)ccc(C(=O)Nc2nnnn2CC)c1Cl [Example 2-124]
## Result 100%

---

test system: Abutilon theophrasti; experiment: Post-emergence herbicidal action against ABUTH; assay type: in vivo; conditions: 5 g/ha
Please respond with reported Post-emergence action against ABUTH for every item in the list.
Write the numeric value and append its unit.

## Task State the recorded Post-emergence action against ABUTH for this entry: `CCN(C(=O)c1c(C(F)F)ccc(C(=O)Nc2nnnn2C)c1Cl)C1CC1`
## Result 90%

## Task State the recorded Post-emergence action against ABUTH for this entry: `CCN(CC)C(=O)c1c(C(F)(F)F)ccc(C(=O)Nc2nnnn2C)c1Cl`
## Result 80%

## Task State the recorded Post-emergence action against ABUTH for this entry: `CCN(C)C(=O)c1c(C(F)(F)F)ccc(C(=O)Nc2nnnn2C)c1C`
## Result 80%

## Task State the recorded Post-emergence action against ABUTH for this entry: `Cn1nnnc1NC(=O)c1ccc(C(F)F)c(C(=O)N(C2CC2)C2CC2)c1Cl`
## Result 80%

## Task State the recorded Post-emergence action against ABUTH for this entry: `CCn1nnnc1NC(=O)c1ccc(C(F)F)c(C(=O)N(C)C)c1Cl`
## Result 100%

## Task State the recorded Post-emergence action against ABUTH for this entry: `CCN(C)C(=O)c1c(C(F)F)ccc(C(=O)Nc2nnnn2C)c1C`
## Result 80%

## Task State the recorded Post-emergence action against ABUTH for this entry: `CCn1nnnc1NC(=O)c1ccc(C(F)(F)F)c(C(=O)N2CCCC2)c1Cl`
## Result 80%

## Task State the recorded Post-emergence action against ABUTH for this entry: `CCN(CC)C(=O)c1c(Br)ccc(C(=O)Nc2nnnn2C)c1Cl`
## Result 80%

## Task State the recorded Post-emergence action against ABUTH for this entry: `CCN(C(=O)c1c(C(F)(F)F)ccc(C(=O)Nc2nnnn2C)c1Cl)C1CC1`
## Result 90%

## Task State the recorded Post-emergence action against ABUTH for this entry: `Cc1c(C(=O)Nc2nnnn2C)ccc(C(F)(F)F)c1C(=O)N(C)C`
## Result 90%

## Task State the recorded Post-emergence action against ABUTH for this entry: `CCn1nnnc1NC(=O)c1ccc(C(F)(F)F)c(C(=O)N(C)C)c1Cl`
## Result 100%

## Task State the recorded Post-emergence action against ABUTH for this entry: `CCN(C)C(=O)c1c(Br)ccc(C(=O)Nc2nnnn2CC)c1Cl`
## Result 80%

## Task State the recorded Post-emergence action against ABUTH for this entry: `CCN(C)C(=O)c1c(C(F)(F)F)ccc(C(=O)Nc2nnnn2C)c1Cl`
## Result 100%

## Task State the recorded Post-emergence action against ABUTH for this entry: `CCN(C)C(=O)c1c(C(F)(F)F)ccc(C(=O)Nc2nnnn2CC)c1Cl`
## Result 100%

## Task State the recorded Post-emergence action against ABUTH for this entry: `CCn1nnnc1NC(=O)c1ccc(C(F)(F)F)c(C(=O)n2cccn2)c1Cl`
## Result 80%

## Task State the recorded Post-emergence action against ABUTH for this entry: `CCn1nnnc1NC(=O)c1ccc(C(F)F)c(C(=O)N(C2CC2)C2CC2)c1Cl`
## Result 80%

## Task State the recorded Post-emergence action against ABUTH for this entry: `CCCn1nnnc1NC(=O)c1ccc(C(F)(F)F)c(C(=O)N(C)C)c1Cl`
## Result 100%

## Task State the recorded Post-emergence action against ABUTH for this entry: `CCN(CC)C(=O)c1c(C(F)F)ccc(C(=O)Nc2nnnn2C)c1C`
## Result 90%

## Task State the recorded Post-emergence action against ABUTH for this entry: `CCN(CC)C(=O)c1c(C(F)F)ccc(C(=O)Nc2nnnn2C)c1Cl`
## Result 80%

## Task State the recorded Post-emergence action against ABUTH for this entry: `CN(C)C(=O)c1c(C(F)(F)F)ccc(C(=O)Nc2nnnn2C)c1Cl`
## Result 100%

## Task State the recorded Post-emergence action against ABUTH for this entry: `Cn1nnnc1NC(=O)c1ccc(C(F)(F)F)c(C(=O)n2cccn2)c1Cl`
## Result 90%

## Task State the recorded Post-emergence action against ABUTH for this entry: `CCCn1nnnc1NC(=O)c1ccc(C(F)(F)F)c(C(=O)N2CCCC2)c1Cl`
## Result 90%

## Task State the recorded Post-emergence action against ABUTH for this entry: `CN(C(=O)c1c(C(F)F)ccc(C(=O)Nc2nnnn2C)c1Cl)C1CC1`
## Result 90%

## Task State the recorded Post-emergence action against ABUTH for this entry: `CCn1nnnc1NC(=O)c1ccc(C(F)(F)F)c(C(=O)N(C)CC2CC2)c1Cl`
## Result 80%

## Task State the recorded Post-emergence action against ABUTH for this entry: `Cc1ccccc1N(C)C(=O)c1c(Cl)ccc(C(=O)Nc2nnnn2C)c1Cl`
## Result 80%

## Task State the recorded Post-emergence action against ABUTH for this entry: `CCN(C)C(=O)c1c(C(F)F)ccc(C(=O)Nc2nnnn2CC)c1C`
## Result 90%

## Task State the recorded Post-emergence action against ABUTH for this entry: `Cc1c(C(=O)Nc2nnnn2C)ccc(C(F)F)c1C(=O)N(C)C`
## Result 80%

## Task State the recorded Post-emergence action against ABUTH for this entry: `CCn1nnnc1NC(=O)c1ccc(C(F)F)c(C(=O)N(C)CC(F)F)c1Cl`
## Result 80%

## Task State the recorded Post-emergence action against ABUTH for this entry: `CN(CC(F)F)C(=O)c1c(C(F)(F)F)ccc(C(=O)Nc2nnnn2C)c1Cl`
## Result 80%

## Task State the recorded Post-emergence action against ABUTH for this entry: `CCN(CC)C(=O)c1c(C(F)F)ccc(C(=O)Nc2nnnn2CC)c1C`
## Result 90%

## Task State the recorded Post-emergence action against ABUTH for this entry: `CCCn1nnnc1NC(=O)c1ccc(C(F)(F)F)c(C(=O)N(C)CC)c1Cl`
## Result 100%

## Task State the recorded Post-emergence action against ABUTH for this entry: `CCN(CC)C(=O)c1c(Br)ccc(C(=O)Nc2nnnn2CC)c1Cl`
## Result 80%

## Task State the recorded Post-emergence action against ABUTH for this entry: `CN(CC(F)F)C(=O)c1c(C(F)F)ccc(C(=O)Nc2nnnn2C)c1Cl`
## Result 90%

## Task State the recorded Post-emergence action against ABUTH for this entry: `CN(C)C(=O)c1c(C(F)F)ccc(C(=O)Nc2nnnn2C)c1Cl`
## Result 100%

## Task State the recorded Post-emergence action against ABUTH for this entry: `CN(C)C(=O)c1c(Br)ccc(C(=O)Nc2nnnn2C)c1Cl`
## Result 80%
